# measurement.protocol: recombinant barcode read abundance after kanamycin selection (control-corrected) (log10(CPM+1)); higher = more efficient recombination; sequences stand for … in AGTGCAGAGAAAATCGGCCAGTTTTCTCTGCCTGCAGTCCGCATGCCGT…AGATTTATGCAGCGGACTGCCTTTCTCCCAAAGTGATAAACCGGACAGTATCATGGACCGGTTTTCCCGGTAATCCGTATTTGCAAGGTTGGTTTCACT; site = the 11-nt target;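 also: IS621 recombinase and bridge RNA in Escherichia coli cells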
Answer Criterion not met if recombinant barcode read abundance (log10) is under 0.2, and Criterion met if it is 0.2 or more.

biopolymer.sequence	qualitative.label
GTCTCGTCTTGGGTTCTAACCTGTTGCTT (site GTCTCTTCTTA)	Criterion not met
GGATCCACTTGGGTTCTAACCTGTTGCCT (site GGATCCACTAG)	Criterion met
CTAGTTGCTTGGGTTCTAACCTGTTGCAA (site CTATTTGCTTT)	Criterion not met
ACTTAGTCTTGGGTTCTAACCTGTTGCTA (site ACATAGTCTCA)	Criterion not met
CTGGTCCCTTGGGTTCTAACCTGTTGCGG (site CTGTTCCCTCC)	Criterion not met
